The origin of these recorded values is the supplement of paper PMC10567573.

Would you kindly list protein stability index for each of these variants?
B1: TMEM106C (parent)
chain: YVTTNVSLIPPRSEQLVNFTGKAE

variants of: B1; experiment: protein stability index of a GFP-peptide fusion (GPS, HEK-293T) (PSI 1-6); higher = more stable; conditions: c terminus: a fixed tail appended;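 further: lentivirally expressed fusions sorted by FACS into six bins by GFP to DsRed ratio, PSI derived from sequencing read proportions per bin multiplied by bin number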
Numbers only.

Please review the entries below; each comes with its answer.
Problem: Identify measured protein stability index corresponding to F19G
Solution: 1.39

Problem: For E14T , write its protein stability index.
Solution: 2.79

Problem: Retrieve protein stability index measured for S7P and print it.
Solution: 2.81

Problem: Give a short answer stating reported protein stability index for E24F .
Solution: 2.81

Problem: Give reported protein stability index value for L16R
Solution: 1.95

Provide protein stability index for all items below, preserving their order.
1. K22G
2. T20A
3. P10I
4. A23C
5. V2G

Solution:
1. 1.89
2. 2.27
3. 2.65
4. 1.84
5. 4.17

Please look at the items below and tell me protein stability index for each one, in order.
1. Y1L
2. S7G
3. E14L

Solution:
1. 2.94
2. 2.36
3. 2.27

Take each entry in turn and give its protein stability index.
1. A23Y
2. P10G
3. S7Y

Solution:
1: 2.44; 2: 3.2; 3: 3.23
